The values you see were collected from patent US12497460B2.

# TARGET OR SYSTEM: T1, His9-hMSR1 (human MSR1 extracellular domain) (Homo sapiens, UniProt P21757)
# T1 construct: human MSR1 extracellular domain expressed with a N-terminal nonahistidine tag; His9 (nonahistidine) (N); purchased R&D Systems 2708-MS
# T1 sequence (P21757 77-451 limits assumed): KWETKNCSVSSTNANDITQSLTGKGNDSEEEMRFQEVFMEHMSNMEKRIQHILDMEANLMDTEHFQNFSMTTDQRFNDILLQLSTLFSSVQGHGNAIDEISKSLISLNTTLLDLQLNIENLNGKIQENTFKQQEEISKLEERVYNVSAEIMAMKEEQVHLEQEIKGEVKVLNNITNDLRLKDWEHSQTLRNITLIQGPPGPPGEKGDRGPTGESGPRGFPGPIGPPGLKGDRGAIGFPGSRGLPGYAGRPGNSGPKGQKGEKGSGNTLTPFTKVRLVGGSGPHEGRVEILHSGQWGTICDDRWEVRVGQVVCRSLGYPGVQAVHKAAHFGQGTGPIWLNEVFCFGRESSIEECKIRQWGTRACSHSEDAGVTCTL
# MEASUREMENT DESCRIPTION: Biacore surface plasmon resonance binding kinetics of anti-MSR1 mAbs, antibody-capture format
# COND: 37° C.; analyte His9-hMSR1; calculated from kinetic rates; NB = no binding observed
# Description: Binding affinities and kinetic constants of human anti-MSR1 antibodies for different MSR1 reagents were determined by real-time surface plasmon resonance (Biacore 4000). […] The association rate (ka) and dissociation rate (kd) were determined by fitting the real-time binding sensorgrams to a 1:1 binding model with mass transport limitation using Scrubber 2.0c curve-fitting software. […]
MEASUREMENT NAME: Kd

MOLECULE	RECORDED RESULT
H1H21231N-N297Q: modified version of "21231N (H1H21231N-N297Q) anti-MSR1 antibodies" with "a N297Q single point mutation" (antibody, V domains shown) VH: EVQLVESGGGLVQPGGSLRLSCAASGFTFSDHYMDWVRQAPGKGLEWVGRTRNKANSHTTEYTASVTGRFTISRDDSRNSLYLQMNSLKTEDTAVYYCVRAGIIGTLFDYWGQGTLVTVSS VL: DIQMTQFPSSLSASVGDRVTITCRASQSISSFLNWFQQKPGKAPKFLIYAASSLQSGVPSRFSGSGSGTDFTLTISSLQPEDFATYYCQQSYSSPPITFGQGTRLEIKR	0.215 nM

Reported Kd ( H1H21227N-N297Q: "modified versions of 21227N (H1H21227N-N297Q and H1H21227N-N297D)"; anti-MSR1 antibody "with a N297Q single point mutation" (antibody, V domains shown) VH: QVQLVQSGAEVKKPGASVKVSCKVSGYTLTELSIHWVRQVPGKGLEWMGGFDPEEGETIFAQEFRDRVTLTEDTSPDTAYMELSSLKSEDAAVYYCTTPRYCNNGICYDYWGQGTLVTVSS VL: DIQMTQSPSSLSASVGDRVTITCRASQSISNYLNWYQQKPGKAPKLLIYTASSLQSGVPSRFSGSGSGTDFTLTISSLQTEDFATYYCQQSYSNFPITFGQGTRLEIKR ) = 0.0046 nM
